conditions: 303.15 K; 101.33 kPa; Liquid; Sing-around technique in a fixed-path interferometer
MEASUREMENT_NAME: speed of sound (m/s)

> print(dat)
                                   compound  measurement.name  endpoint.result
1  CCCC[n+]1cccc(C)c1.F[B-](F)(F)F [1-butyl-3-methylpyridinium tetrafluoroborate]    speed of sound           1574.8
2  CCCCn1cc[n+](C)c1.O=S(=O)([O-])C(F)(F)F [1-butyl-3-methylimidazolium trifluoromethanesulfonate]    speed of sound           1380.9
3  CCCCCCn1cc[n+](C)c1.F[B-](F)(F)F [1-hexyl-3-methylimidazolium tetrafluoroborate]    speed of sound           1506.9
4                                       CCO    speed of sound           1125.5

----------
conditions: 293.15 K; 101.33 kPa; Liquid; Vibrating tube method
MEASUREMENT_NAME: mass density (kg/m3)

> print(dat)
                                   compound  measurement.name   unit  endpoint.result
1  CCCCn1cc[n+](C)c1.F[B-](F)(F)F [1-butyl-3-methylimidazolium tetrafluoroborate]      mass density  kg/m3           1207.6
2  CCCCCCn1cc[n+](C)c1.F[B-](F)(F)F [1-hexyl-3-methylimidazolium tetrafluoroborate]      mass density  kg/m3           1148.8
3  CCCCn1cc[n+](C)c1.O=S(=O)([O-])C(F)(F)F [1-butyl-3-methylimidazolium trifluoromethanesulfonate]      mass density  kg/m3           1301.6
4  CCCCn1cc[n+](C)c1.COS(=O)(=O)[O-] [1-butyl-3-methylimidazolium methyl sulfate]      mass density  kg/m3           1210.7
